# system name: UniProt O70536
# Sequence (O70536 whole entry): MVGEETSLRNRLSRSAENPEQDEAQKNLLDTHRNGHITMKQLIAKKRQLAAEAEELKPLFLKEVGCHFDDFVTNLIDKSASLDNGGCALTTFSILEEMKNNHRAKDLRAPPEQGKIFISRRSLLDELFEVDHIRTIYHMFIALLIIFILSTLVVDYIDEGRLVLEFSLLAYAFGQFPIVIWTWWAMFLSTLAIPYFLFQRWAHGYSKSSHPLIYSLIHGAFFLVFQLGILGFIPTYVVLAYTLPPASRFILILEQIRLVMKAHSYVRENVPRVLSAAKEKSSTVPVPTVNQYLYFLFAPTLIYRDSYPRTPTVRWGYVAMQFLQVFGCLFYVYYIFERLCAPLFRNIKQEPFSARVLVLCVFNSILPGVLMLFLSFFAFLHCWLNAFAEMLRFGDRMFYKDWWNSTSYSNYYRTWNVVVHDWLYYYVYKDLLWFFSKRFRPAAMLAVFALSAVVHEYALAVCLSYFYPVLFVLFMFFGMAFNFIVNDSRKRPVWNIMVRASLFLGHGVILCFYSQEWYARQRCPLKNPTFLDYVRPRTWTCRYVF
readout label: IC50 (µM)

{"compound": "CCCCCCCC/C=C\\CCCCCCCC(=O)N1CCc2ccccc2C1Cc1ccccc1 (configuration not stated)", "IC50 (µM)": 4.8}
{"compound": "CCCCCCCC/C=C\\CCCCCCCC(=O)N1Cc2cc(OC)c(OC)cc2CC1c1ccccc1 (configuration not stated)", "IC50 (µM)": 3.8}

====

# system name: Sterol O-acyltransferase 1 (Rattus norvegicus) (UniProt O70536)
# experimental protocol: Percent inhibition of Acyl coenzyme A:cholesterol acyltransferase at a concentration of 25(micro M) was evaluated in rat liver microsomes using ACAT microsomal assay.
# experimental parameters: Microsome
readout label: inhibition (%)

Illustrative cases are given below, each with its answer.
{"molecule": "CCCCCCCC/C=C\\CCCCCCCC(=O)N1CCc2cc(O)c(O)cc2C1Cc1ccccc1 (configuration not stated)", "system name": "Sterol O-acyltransferase 1 (Rattus norvegicus) (UniProt O70536)", "result": 73}
{"molecule": "CCCCCCCC/C=C\\CCCCCCCC(=O)N1Cc2cc(OC)c(OC)cc2CC1c1ccccc1 (configuration not stated)", "system name": "Sterol O-acyltransferase 1 (Rattus norvegicus) (UniProt O70536)", "result": 86}
{"molecule": "CCCCCCCC/C=C\\CCCCCCCC(=O)N1CCc2ccccc2C1Cc1ccccc1 (configuration not stated)", "system name": "Sterol O-acyltransferase 1 (Rattus norvegicus) (UniProt O70536)", "result": 81}
{"molecule": "CCCCCCCC/C=C\\CCCCCCCC(=O)N1Cc2cc(OC)c(OC)cc2CC1c1ccc(OC)c(OC)c1 (configuration not stated)", "system name": "Sterol O-acyltransferase 1 (Rattus norvegicus) (UniProt O70536)", "result": 67}
{"molecule": "CCCCCCCC/C=C\\CCCCCCCC(=O)NC(Cc1ccccc1)c1ccccc1 (configuration not stated)", "system name": "Sterol O-acyltransferase 1 (Rattus norvegicus) (UniProt O70536)", "result": 87}

(1) CCCCCCCC/C=C\CCCCCCCC(=O)N1CCc2cc(OC)c(OC)cc2C1Cc1ccc(OC)c(OC)c1 (configuration not stated)
(2) CCCCCCCC/C=C\CCCCCCCC(=O)N1CCc2cc(OC)c(OC)cc2C1Cc1ccccc1 (configuration not stated)
q: I need your help: which of the pair 1 , 2 has higher inhibition? Answer format: the label of the selected item.
a: 1
